- Test system: M. mycetomatis genome strain MM55
- measurement_notes: CLSI M38-A2 based in vitro susceptibility screening (XTT or resazurin), growth at fixed concentration
- Assay type: cell-based, Madurella mycetomatis
- assay_context: Madurella mycetomatis, 25 uM, mean of three replicates; read-out: Percentage survival at 25um, 25 uM mean
Grouping key: activity at 25 µM. Bins: low band (below 80%), middle band (80% to below 90%), high band (90% or more)

-- ask Assign a category based on measured activity at 25 µM for CC(=O)N1c2ccccc2NC2=C(C(=O)CC(C)(C)C2)C1c1ccc(OCc2ccccc2)cc1 (stereo not drawn) and give only the class name.
-- reply high band

---

- Test system: M. mycetomatis genome strain MM55
- measurement_notes: CLSI M38-A2 based in vitro susceptibility screening (XTT or resazurin), growth at fixed concentration
- Type: cell-based, Madurella mycetomatis
- assay_context: Madurella mycetomatis, 100 uM, replicate 3, MM55; read-out: Percentage survival at 100um, 100 uM A
Recorded activity at 100 µM, one value per entry.
Number only, in %; omit the unit.

CC(C)CCN1C(=O)C(C2=NS(=O)(=O)c3cc(NS(C)(=O)=O)ccc3N2)=C(O)[C@@H]2[C@H]3CC[C@H](C3)[C@@H]21 [MMV1782220] ... 127
FC(F)(F)c1cc(C(F)(F)F)c2ccc3nc(-c4nnco4)cn3c2n1 [MMV690555] ... 73.1

-- ask Quick one: activity at 100 µM for CN(C)CC(=O)Nc1ccc2[nH]c(=O)c3ccccc3c2c1 [MMV1580480] ?
-- reply 78.7

-- ask # lookup: activity at 100 µM of N[C@H]1CCC[C@H]1C(=O)O [MMV1634361]
-- reply 79.2

-- ask Endpoint output: activity at 100 µM of N[C@H](CCC(=O)N[C@@H](Cc1c[nH]c2ccccc12)C(=O)O)C(=O)O [MMV1581033] . Value?
-- reply 87.7

-- ask Reported activity at 100 µM for Cc1cc(CCCOc2c(C)cc(-c3noc(C(F)(F)F)n3)cc2C)on1 [MMV690467] : what is it?
-- reply 64.3

-- ask Query: activity at 100 µM; subject: O=C(NO)C1(CS(=O)(=O)c2ccc(Oc3ccc(Cl)cc3)cc2)CCOCC1 [MMV690706]
-- reply 70.2

-- ask Suppose we examine the compound CC(C)(C)c1ccc(C(Cn2cccc(C(F)(F)F)c2=O)NC2Cc3ccccc3C2)cc1 (centres unmarked) [MMV1634393] ; what activity at 100 µM value has been reported?
-- reply 62.2
